Source of measurements: ChEMBL document CHEMBL1139392

# Tested on: Streptococcus pneumoniae
# protocol summary: Antibacterial activity against Streptococcus pneumoniae C402 after 18 to 20 hrs by agar dilution method
# Assay type: functional

smiles | system | MIC [µg/mL]
CC(=O)NC[C@H]1CN(c2ccc(N3CCCN(C)S3(=O)=O)c(F)c2)C(=O)O1 | Streptococcus pneumoniae | 0.78
CC(=O)NC[C@H]1CN(c2ccc(N3CCN(C)S3(=O)=O)c(F)c2)C(=O)O1 | Streptococcus pneumoniae | 0.78
CCN1CCN(c2ccc(N3C[C@H](CNC(C)=O)OC3=O)cc2F)S1(=O)=O | Streptococcus pneumoniae | 0.78

###

# System: Staphylococcus aureus
# protocol summary: Antibacterial activity against Staphylococcus aureus C463 after 18 to 20 hrs by agar dilution method
# Assay type: functional

smiles | system | MIC [µg/mL]
CC(=O)NC[C@H]1CN(c2ccc(N3CCOCC3)c(F)c2)C(=O)O1 | Staphylococcus aureus | 1.56
CC(=O)NC[C@H]1CN(c2ccc(N3CCN(C)S3(=O)=O)c(F)c2)C(=O)O1 | Staphylococcus aureus | 3.12
CC(=O)NC[C@H]1CN(c2ccc(N3CCN(C(=O)OC(C)(C)C)S3(=O)=O)c(F)c2)C(=O)O1 | Staphylococcus aureus | 12.5
CC(=O)NC[C@H]1CN(c2ccc(N3CCOS3(=O)=O)c(F)c2)C(=O)O1 | Staphylococcus aureus | 3.12
CC(=O)NC[C@H]1CN(c2ccc(N3CC(C)(C)NS3(=O)=O)c(F)c2)C(=O)O1 | Staphylococcus aureus | 12.5
CC(=O)NC[C@H]1CN(c2ccc(N3CCN(Cc4ccccc4)S3(=O)=O)c(F)c2)C(=O)O1 | Staphylococcus aureus | 6.25
CCN1CCN(c2ccc(N3C[C@H](CNC(C)=O)OC3=O)cc2F)S1(=O)=O | Staphylococcus aureus | 6.25
